# protocol summary: Membrane permeability test (PAMPA)
# Assay type: in vitro ADME
# condition info: pH 5.0, 37° C., read-out: pH 5.0 Pe
# Experimental: The membrane permeability of the test compound was tested by parallel artificial membrane permeability assay (PAMPA) as follows. […] Both plates were overlapped and incubated at 37° C. for 4 hours, after which the UV of the solutions on the acceptor side and donor side was measured using a UV plate reader (190-500 nm). Compounds with poor UV absorption were measured using LC-MS. The permeability coefficient Pe (10^−6 cm/sec) of the drug was calculated using the following equation.
value kind: Papp at 4 h (nm/s)
Your answer is read as nm/s, so omit the unit and give the number.

Which Papp at 4 h value is on record for O=C1N[C@]2(C[C@@H](F)c3cc(-c4cnn(C5CCN(C6COC6)CC5)c4)ccc32)C(=O)N1CC(=O)N(Cc1ccc(F)cn1)C1(C(F)(F)F)COC1 ? 32

Which Papp at 4 h value is on record for CN1CC(N(Cc2ccc(C(F)(F)F)cc2)C(=O)CN2C(=O)N[C@]3(C[C@@H](F)c4cc(-c5cnn(C)c5)ccc43)C2=O)(C(F)(F)F)C1 ? 312

Which Papp at 4 h value is on record for CC(C)n1cc(-c2ccc3c(c2)[C@H](F)C[C@]32NC(=O)N(CC(=O)N(Cc3ccc(F)cc3)C3(C(F)(F)F)CN(C)C3)C2=O)cn1 ? 313
